- Assay System: Recombinant ROCK1 (amino acids 1-477) (Homo sapiens)
- Construct: Recombinant ROCK1 (amino acids 1-477); by word order, ROCK1 from Carna Biosciences
- Sequence (Q13464 1-477): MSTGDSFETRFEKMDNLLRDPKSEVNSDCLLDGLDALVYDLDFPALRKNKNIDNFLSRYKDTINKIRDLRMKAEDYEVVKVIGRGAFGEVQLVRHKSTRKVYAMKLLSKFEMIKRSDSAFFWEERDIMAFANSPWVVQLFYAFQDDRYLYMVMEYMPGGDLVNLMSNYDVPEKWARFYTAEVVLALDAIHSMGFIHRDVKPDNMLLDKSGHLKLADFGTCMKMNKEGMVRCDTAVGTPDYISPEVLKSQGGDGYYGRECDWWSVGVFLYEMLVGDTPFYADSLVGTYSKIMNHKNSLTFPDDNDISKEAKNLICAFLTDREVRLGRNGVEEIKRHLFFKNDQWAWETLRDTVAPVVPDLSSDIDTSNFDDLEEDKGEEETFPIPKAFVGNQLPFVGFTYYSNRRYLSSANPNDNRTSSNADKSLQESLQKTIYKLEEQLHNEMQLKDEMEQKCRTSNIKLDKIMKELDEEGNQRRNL
- Protocol Text: ROCK inhibition assay, LANCE Ultra TR-FRET kinase assay (ROCK1)
- Run Conditions: 1 μM ATP, 50 nM ULight-CREBtide substrate
pIC50: −log10 of the molar value.
Parameter Measured: pIC50

Below: 7 compounds and their reported pIC50.
[
  {
    "Compound": "Cc1nocc1-c1ccc2c(=O)n(Cc3cccc(C(=O)NCc4ccccc4)c3)cc(C(C)O)c2c1 (centres unmarked)",
    "Assay System": "Recombinant ROCK1 (amino acids 1-477) (Homo sapiens)",
    "pIC50": "7.00 to 7.96"
  },
  {
    "Compound": "COc1cccc(C(CN)n2cnc3cc(-c4cn[nH]c4C)ccc3c2=O)c1 (centres unmarked)",
    "Assay System": "Recombinant ROCK1 (amino acids 1-477) (Homo sapiens)",
    "pIC50": "> 8.00"
  },
  {
    "Compound": "O=C(NCCO)c1cccc(Cn2cnc3cc(-c4cn[nH]c4C(F)F)ccc3c2=O)c1",
    "Assay System": "Recombinant ROCK1 (amino acids 1-477) (Homo sapiens)",
    "pIC50": "7.00 to 7.96"
  },
  {
    "Compound": "CNC(=O)c1cncc(Cn2ccc3cc(-c4conc4C)ccc3c2=O)c1",
    "Assay System": "Recombinant ROCK1 (amino acids 1-477) (Homo sapiens)",
    "pIC50": "6.30 to 7.00"
  },
  {
    "Compound": "CNC(=O)c1cccc(Cn2cc(CC(C)O)c3cc(-c4cn[nH]c4C(F)(F)F)ccc3c2=O)c1 (centres unmarked)",
    "Assay System": "Recombinant ROCK1 (amino acids 1-477) (Homo sapiens)",
    "pIC50": "7.00 to 7.96"
  },
  {
    "Compound": "CC(=O)Nc1cccc(Cn2ccc3cc(-c4c[nH]nc4C(F)(F)F)ccc3c2=O)c1",
    "Assay System": "Recombinant ROCK1 (amino acids 1-477) (Homo sapiens)",
    "pIC50": "6.30 to 7.00"
  },
  {
    "Compound": "Cc1nocc1-c1ccc2c(=O)n(Cc3cc(F)cc(C(=O)NCC4CCN(C5COC5)CC4)c3)ccc2c1",
    "Assay System": "Recombinant ROCK1 (amino acids 1-477) (Homo sapiens)",
    "pIC50": "6.30 to 7.00"
  }
]

Next compound, please.
Quote pIC50 reported for CN1CCC(CNC(=O)c2cccc(Cn3ccc4cc(-c5c[nH]nc5Cl)ccc4c3=O)c2)CC1 please.
> 8.00

----------
- Assay System: Recombinant ROCK2 (amino acids 5-554) (Homo sapiens, UniProt O75116)
- Construct: ROCK2 (amino acids 5-554); by word order, ROCK2 from SignalChem
- Sequence (O75116 5-554): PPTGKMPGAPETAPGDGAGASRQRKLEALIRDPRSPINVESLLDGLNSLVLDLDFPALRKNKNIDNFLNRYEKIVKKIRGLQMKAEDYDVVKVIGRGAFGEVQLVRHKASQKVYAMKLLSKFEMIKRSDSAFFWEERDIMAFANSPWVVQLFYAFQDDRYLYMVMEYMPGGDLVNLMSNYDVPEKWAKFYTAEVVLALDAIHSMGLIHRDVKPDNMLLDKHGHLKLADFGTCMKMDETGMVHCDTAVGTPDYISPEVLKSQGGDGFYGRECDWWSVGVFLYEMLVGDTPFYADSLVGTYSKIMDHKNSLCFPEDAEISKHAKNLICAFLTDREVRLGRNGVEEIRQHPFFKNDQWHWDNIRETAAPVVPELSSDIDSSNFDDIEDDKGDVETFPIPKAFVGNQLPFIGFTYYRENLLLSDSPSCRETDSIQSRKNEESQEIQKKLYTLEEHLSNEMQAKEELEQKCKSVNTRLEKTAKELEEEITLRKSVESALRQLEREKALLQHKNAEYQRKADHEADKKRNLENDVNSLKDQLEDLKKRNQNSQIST
- Protocol Text: ROCK inhibition assay, LANCE Ultra TR-FRET kinase assay (ROCK2)
- Assay type: biochemical
- Run Conditions: 4 μM ATP, 50 nM ULight-CREBtide substrate
The entries below come with measured IC50 values attached.

[
  {
    "Structure Notation": "[2H]C([2H])([2H])NC(=O)c1cccc(Cn2ccc3cc(-c4cn[nH]c4C(F)F)ncc3c2=O)c1",
    "IC50": "< 0.01 µM"
  },
  {
    "Structure Notation": "Cc1n[nH]cc1-c1ccc2c(=O)n(Cc3cccc(C(=O)Nc4ccc(F)nc4)c3)ccc2c1",
    "IC50": "0.01 to 0.1 µM"
  }
]

Find IC50 for [2H]C([2H])([2H])NC(=O)c1cccc(Cn2ccc3cc(-c4c[nH]nc4Cl)ncc3c2=O)c1 on Recombinant ROCK2 (amino acids 5-554) (Homo sapiens, UniProt O75116) and write it down.
< 0.01 µM

Find IC50 for Cc1nocc1-c1ccc2c(=O)n(Cc3cc(F)cc(C(=O)NCC4CCN(C5CC5)CC4)c3)ccc2c1 on Recombinant ROCK2 (amino acids 5-554) (Homo sapiens, UniProt O75116) and write it down.
< 0.01 µM

Find IC50 for Nc1cc(-c2ccc3c(=O)n(Cc4cccc(C(=O)NCC5CCOCC5)c4)cnc3c2)ccn1 on Recombinant ROCK2 (amino acids 5-554) (Homo sapiens, UniProt O75116) and write it down.
0.01 to 0.1 µM

Find IC50 for CNC(=O)c1cccc([C@@H](C)n2cnc3cc(-c4cn[nH]c4C(F)(F)F)ncc3c2=O)c1 on Recombinant ROCK2 (amino acids 5-554) (Homo sapiens, UniProt O75116) and write it down.
< 0.01 µM

Find IC50 for Cc1nocc1-c1ccc2c(=O)n(Cc3cccc(C(=O)NCC4CCN(CC(F)F)CC4)c3)ccc2c1 on Recombinant ROCK2 (amino acids 5-554) (Homo sapiens, UniProt O75116) and write it down.
0.01 to 0.1 µM

----------
- Assay System: Recombinant ROCK2 (amino acids 5-554) (Homo sapiens)
- Construct: ROCK2 (amino acids 5-554); by word order, ROCK2 from SignalChem
- Protocol Text: ROCK inhibition assay, LANCE Ultra TR-FRET kinase assay (ROCK2)
- Run Conditions: 4 μM ATP, 50 nM ULight-CREBtide substrate
pIC50: −log10 of the molar value.
The entries below come with measured pIC50 values attached.

[
  {
    "Structure Notation": "O=c1c2ccc(-c3c[nH]nc3C(F)F)cc2ccn1Cc1cccc(O)c1",
    "Assay Value": "> 8.00"
  },
  {
    "Structure Notation": "CNC(=O)c1cc(Cn2ccc3cc(-c4conc4C)ccc3c2=O)ccc1F",
    "Assay Value": "7.00 to 8.00"
  },
  {
    "Structure Notation": "Cc1n[nH]cc1-c1ccc2c(=O)n(Cc3cccc(C(=O)Nc4ccn(C)n4)c3)ccc2c1",
    "Assay Value": "> 8.00"
  }
]

Next compound, please.
Quote pIC50 reported for COc1cccc(Cn2ccc3cc(-c4c[nH]nc4Cl)ccc3c2=O)c1 please.
> 8.00

----------
- Assay System: Recombinant ROCK2 (amino acids 5-554) (Homo sapiens, UniProt O75116)
- Construct: ROCK2 (amino acids 5-554); by word order, ROCK2 from SignalChem
- Protocol Text: ROCK inhibition assay, LANCE Ultra TR-FRET kinase assay (ROCK2)
- Run Conditions: 4 μM ATP, 50 nM ULight-CREBtide substrate
The entries below come with measured IC50 values attached.

Below: 3 molecules and their reported IC50.
[
  {
    "Molecule": "O=C(NC1CCN(C2COC2)CC1)c1cccc(Cn2cnc3cc(-c4cn[nH]c4C(F)(F)F)ccc3c2=O)c1",
    "Parameter Measured": "IC50",
    "Assay Value": "< 10 nM"
  },
  {
    "Molecule": "CN1CCC(CNC(=O)c2cc(F)cc(Cn3ccc4cc(-c5c[nH]nc5C(F)(F)F)ncc4c3=O)c2)CC1",
    "Parameter Measured": "IC50",
    "Assay Value": "< 10 nM"
  },
  {
    "Molecule": "Cc1nocc1-c1ccc2c(=O)n(Cc3cccc(C(=O)Nc4ccc5c(c4)CCN(C)C5)c3)ccc2c1",
    "Parameter Measured": "IC50",
    "Assay Value": "< 10 nM"
  }
]

Quote IC50 reported for CNC(=O)c1cccc(Cn2ccc3cc(-c4ccnn4C)ccc3c2=O)c1 please.
10 to 100 nM

Quote IC50 reported for CNC(=O)c1cccc(Cn2ccc3cc(-c4cnnn4C)ccc3c2=O)c1 please.
> 500 nM

Quote IC50 reported for Cn1nccc1-c1ccc2c(=O)n(Cc3cccc(C(=O)N[C@H]4C[C@@H](O)C4)c3)cnc2c1 please.
< 10 nM

----------
The entries below come with measured IC50 values attached.
- Assay System: Recombinant ROCK2 (amino acids 5-554) (Homo sapiens, UniProt O75116)
- Construct: ROCK2 (amino acids 5-554); by word order, ROCK2 from SignalChem
- Protocol Text: ROCK inhibition assay, LANCE Ultra TR-FRET kinase assay (ROCK2)
- Run Conditions: 4 μM ATP, 50 nM ULight-CREBtide substrate

Below: 2 molecules and their reported IC50.
[
  {
    "Molecule": "CNC(=O)c1cccc(Cn2cc(C(C)O)c3cc(-c4ccnc(N)c4)ccc3c2=O)c1 (centres unmarked)",
    "IC50": "< 10 nM"
  },
  {
    "Molecule": "O=C(N[C@H]1CC[C@@H](O)CC1)c1cccc(Cn2cnc3cc(-c4cn[nH]c4Cl)ccc3c2=O)c1",
    "IC50": "< 10 nM"
  }
]

Find IC50 for CN(C)CCNC(=O)c1cccc(Cn2ccc3cc(-c4ccnn4C)ccc3c2=O)c1 on Recombinant ROCK2 (amino acids 5-554) (Homo sapiens, UniProt O75116) and write it down.
< 10 nM

Find IC50 for O=C(NCC1COC1)c1cc(F)cc(Cn2ccc3cc(-c4c[nH]nc4C(F)F)ccc3c2=O)c1 on Recombinant ROCK2 (amino acids 5-554) (Homo sapiens, UniProt O75116) and write it down.
< 10 nM

Find IC50 for Cc1nocc1-c1ccc2c(=O)n(Cc3cc(F)cc(C(=O)NCC4CCN(C5COC5)CC4)c3)ccc2c1 on Recombinant ROCK2 (amino acids 5-554) (Homo sapiens, UniProt O75116) and write it down.
< 10 nM

Find IC50 for Nc1cc(-c2ccc3c(=O)n(Cc4cccc(C(=O)NC5CCOCC5)c4)cnc3c2)ccn1 on Recombinant ROCK2 (amino acids 5-554) (Homo sapiens, UniProt O75116) and write it down.
10 to 100 nM

Find IC50 for CN1CCC(NC(=O)c2cccc(Cn3cnc4cc(-c5ccnn5C)ccc4c3=O)c2)CC1 on Recombinant ROCK2 (amino acids 5-554) (Homo sapiens, UniProt O75116) and write it down.
< 10 nM

Find IC50 for Cc1nocc1-c1ccc2c(=O)n(Cc3cccc(C(=O)N[C@H]4CC[C@@H](O)CC4)c3)ccc2c1 on Recombinant ROCK2 (amino acids 5-554) (Homo sapiens, UniProt O75116) and write it down.
10 to 100 nM

Find IC50 for Cc1nocc1-c1ccc2c(=O)n(Cc3cccc(C(=O)Nc4ccc5c(c4)CCNC5)c3)ccc2c1 on Recombinant ROCK2 (amino acids 5-554) (Homo sapiens, UniProt O75116) and write it down.
< 10 nM

Find IC50 for Cc1nocc1-c1ccc2c(=O)n(Cc3cccc(C(=O)NC4CCN(CC(F)(F)F)CC4)c3)ccc2c1 on Recombinant ROCK2 (amino acids 5-554) (Homo sapiens, UniProt O75116) and write it down.
< 10 nM

Find IC50 for Cn1nccc1-c1ccc2c(=O)n(Cc3cccc(O)c3)ccc2c1 on Recombinant ROCK2 (amino acids 5-554) (Homo sapiens, UniProt O75116) and write it down.
< 10 nM
